Biological target: LYCHOS (GPR155) (Homo sapiens)
recorded-endpoint: pKd
Answer as the number alone; pKd is minus log10 of concentration in mol/L.

For the compound O=C(O)Cc1c[nH]c2ccccc12 , what pKd is on record? 2.79

###

Molecular target: LYCHOS (GPR155) (Homo sapiens, UniProt Q7Z3F1, N145A)
Sequence (Q7Z3F1 1-870 N145A): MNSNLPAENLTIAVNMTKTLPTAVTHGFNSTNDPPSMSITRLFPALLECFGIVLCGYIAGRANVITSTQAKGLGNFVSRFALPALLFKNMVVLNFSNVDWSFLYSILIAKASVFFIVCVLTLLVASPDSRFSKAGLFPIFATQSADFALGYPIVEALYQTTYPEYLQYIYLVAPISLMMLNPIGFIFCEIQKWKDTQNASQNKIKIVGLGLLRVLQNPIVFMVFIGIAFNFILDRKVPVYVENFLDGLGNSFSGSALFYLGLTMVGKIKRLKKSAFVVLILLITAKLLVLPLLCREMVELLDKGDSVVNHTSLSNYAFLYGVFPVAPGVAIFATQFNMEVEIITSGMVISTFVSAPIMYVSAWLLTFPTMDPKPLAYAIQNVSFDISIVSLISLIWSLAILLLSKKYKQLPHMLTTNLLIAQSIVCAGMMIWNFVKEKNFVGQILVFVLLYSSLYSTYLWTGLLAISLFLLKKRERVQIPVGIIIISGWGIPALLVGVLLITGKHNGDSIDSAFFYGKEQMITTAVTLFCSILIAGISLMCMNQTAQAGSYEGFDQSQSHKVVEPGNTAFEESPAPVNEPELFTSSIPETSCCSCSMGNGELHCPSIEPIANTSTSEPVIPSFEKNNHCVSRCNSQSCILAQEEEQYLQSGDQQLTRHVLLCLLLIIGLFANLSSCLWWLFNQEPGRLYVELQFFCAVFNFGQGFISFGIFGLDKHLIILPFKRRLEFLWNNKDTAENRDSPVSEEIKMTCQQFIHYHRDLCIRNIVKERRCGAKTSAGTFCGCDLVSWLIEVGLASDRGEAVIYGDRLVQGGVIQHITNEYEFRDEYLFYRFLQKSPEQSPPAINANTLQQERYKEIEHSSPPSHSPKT
Assay: SPR steady-state affinity
recorded-endpoint: pKd
Answer as the number alone; pKd is minus log10 of concentration in mol/L.

For the compound O=C(O)Cc1c[nH]c2ccccc12 , what pKd is on record? 2.26
